details: 298.15 K; 100 kPa; Liquid; Pycnometric method
measurement_name: mass density (kg/m3)

| compound | mass density / kg/m3 |
| --- | --- |
| CC#N [acetonitrile] | 776.82 |
| C=C(C)C(=O)OCC [ethyl 2-methylpropenoate] | 907.18 |
| C=C(C)C(=O)OC [methyl methacrylate] | 937.64 |
| C=C(C)C(=O)OCCCC [butyl 2-methyl-2-propenoate] | 890.48 |

###

details: 313.15 K; 100 kPa; Liquid; Pycnometric method
measurement_name: mass density (kg/m3)

| compound | number |
| --- | --- |
| C=C(C)C(=O)OCCCC [butyl 2-methyl-2-propenoate] | 876.35 |
| CC#N | 760.9 |
| C=C(C)C(=O)OCC [ethyl 2-methylpropenoate] | 891.83 |
| C=C(C)C(=O)OC [methyl methacrylate] | 920.42 |
